# system: UniProtKB P61964
# test details: Surface Plasmon Resonance (SPR) assay
# Type: binding
# Design: Full length WDR5 with an N-terminal His tag and C-terminal AviTag; His tag (N); made in house; host or cells: E. coli
# measurement setup: read-out: SPR Kd
Kindly apply the following: True if Kd is less than 1 nM, False in every other case.

chem smiles	group
CC(C)[C@H]1CN(c2ncc(-c3c(F)cc(N4CCN(C)[C@@H](C)C4)c(NC(=O)c4c[nH]c(=O)cc4C(F)(F)F)c3F)cn2)CCO1	True
C[C@@H]1CN(c2cc(F)c(C3=CCCN(C(=O)OC4CC(F)(F)C4)C3)c(F)c2NC(=O)c2c[nH]c(=O)cc2C(F)(F)F)C[C@H](C)N1C	False
C[C@H]1CN(c2cc(F)c(-c3ccc4c(c3)OCCO4)c(F)c2NC(=O)c2c[nH]c(=O)cc2C(F)(F)F)CCN1C	False
CC(C)[C@@H]1CN(c2nccc(-c3c(F)cc(N4CCN(C)[C@@H](C)C4)c(NC(=O)c4c[nH]c(=O)cc4C(F)F)c3F)n2)CCO1	True
